Value source: PubChem BioAssay (NCI)

growth overview
System: SK-MEL-2 melanoma
Assay: NCI-60 one-dose screen, 48 h (100 = growth as untreated, 0 = no growth, -100 = all killed)
Details: 10 µM unless noted
The panel holds about 83,000 compounds, 20% with a hit somewhere; the sample as a whole holds those more often.
Give a bare numeral; the unit % is implied.

Below: 4 compounds and their reported growth.
> print(dat)
                                   compound  endpoint.name  scale.unit  recorded.number
1  Cc1ccc2c(c1)C(=O)/C(=C\Nc1ccc(C(N)=O)cc1)C(O)O2 (stereo not given)         growth           %             77.4
2  NS(=O)(=O)c1ccc(-n2ncc3c(N/N=C/c4ccccc4)ncnc32)cc1         growth           %             70.5
3  Nc1ccc(Oc2c(F)c(F)c(Oc3ccc(N)cc3)c(F)c2F)cc1         growth           %             17.5
4  Cc1cc(C(=O)Nc2ccc3cc(CN4CCOCC4)ccc3n2)c(C)n1-c1ccccc1         growth           %             16.6

Consider now this further compound.
What measured growth goes with `COC(=O)CC1=C(c2ccc([N+](=O)[O-])cc2)CCC1=O` ?
103
